- STUDY SYSTEM: T1, apical domain of CCT3 (ApiCCT3) (UniProt P49368 210-380)
- T1 sequence (looked up): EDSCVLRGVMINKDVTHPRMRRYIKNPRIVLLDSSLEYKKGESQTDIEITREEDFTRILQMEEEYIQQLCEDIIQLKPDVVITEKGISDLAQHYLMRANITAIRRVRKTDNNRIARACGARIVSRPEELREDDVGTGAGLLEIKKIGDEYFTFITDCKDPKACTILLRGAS
- EXPERIMENT: SPR
pKd: −log10 of the molar value.
PROPERTY MEASURED: pKd

query: Tell me the measured pKd of HIV protein p6 (natural protein) LQSRPEPTAPPEESFRSGVETTTPPQKQEPIDKELYPLTSLRSLFGNDPSSQ , please.
result: 6.30 to 6.60
